Origin of measurements: patent US20250236616A1

# Test system: IL-1β
# experimental-details: Whole bovine blood assay, LPS-induced IL-1β (inhibition / overstimulation)
# Type: cell-based
# conditions: drug concentration giving overstimulation (OS) of LPS-induced IL-1β, top concentration 250 μM
measurement-name: minimal effective concentration (µM)
Number in µM, nothing else.

The examples below pair each entry with its known result.
>>> measured_result("CC[C@H]1OC(=O)[C@H](C)[C@@H](O[C@H]2C[C@@](C)(OC)[C@](O)(CNCCCN(C)C)[C@H](C)O2)[C@H](C)[C@@H](O[C@@H]2O[C@H](C)C[C@H](N(C)S(=O)(=O)Nc3ccc(C(F)(F)F)cc3)[C@H]2O)[C@](C)(O)C[C@@H](C)CN[C@H](C)[C@@H](O)[C@]1(C)O [Example B-74]")
16
>>> measured_result("CC[C@H]1OC(=O)[C@H](C)[C@@H](O)[C@H](C)[C@@H](O[C@@H]2O[C@H](C)C[C@H](N(C)S(=O)(=O)c3ccc(N4CCOCC4)nc3)[C@H]2Oc2ccc(F)cc2)[C@](C)(O)C[C@@H](C)CN[C@H](C)[C@@H](O)[C@]1(C)O [Example A-21]")
16

# ---- query molecule ----
Ask | Form field: reported minimal effective concentration of CC[C@H]1OC(=O)[C@H](C)[C@@H](O[C@H]2C[C@@](C)(OC)[C@](O)(CNCCCF)[C@H](C)O2)[C@H](C)[C@@H](O[C@@H]2O[C@H](C)C[C@H](N(C)S(=O)(=O)Nc3ccc(C(F)(F)F)cc3)[C@H]2O)[C@](C)(O)C[C@@H](C)CN[C@H](C)[C@@H](O)[C@]1(C)O [Example B-91]
Reply | 2
